# Tested System: human Kallikrein-related peptidase 7 (hKLK7) (human), P49862
# Sequence (P49862 30-253): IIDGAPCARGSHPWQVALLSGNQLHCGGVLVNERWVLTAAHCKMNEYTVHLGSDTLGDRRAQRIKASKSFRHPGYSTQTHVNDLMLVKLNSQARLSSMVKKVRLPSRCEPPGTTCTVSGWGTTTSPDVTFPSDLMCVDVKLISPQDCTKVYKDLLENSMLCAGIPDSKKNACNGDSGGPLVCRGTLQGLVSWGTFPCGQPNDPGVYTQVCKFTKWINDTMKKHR
# Assay Text: enzyme inhibition; 1,3-dibromoacetone linker
# Condition Set: modification not given
pKi: −log10 of the molar value.
Readout: pKi

Name the reported pKi value associated with the binder FCLWPWCQPPEACPSQCE [012] < 6.00
